Data provenance: ChEMBL document CHEMBL4177761

# experimental-protocol: Tmax in monkey at 2.5 mg/kg, po by LC-MS method
# Type: ADME, organism-based, Macaca mulatta
# details: rhesus monkey, in vivo
measurement-label: Tmax (h)
Kindly answer with a numeric value in h, unit omitted.

Challenge: Name the reported Tmax value associated with the compound `COC(=O)N[C@H](C(=O)N1CCC[C@H]1c1nc2cc([C@H]3CC[C@H](c4cc5nc([C@@H]6CCCN6C(=O)[C@@H](NC(=O)OC)[C@@H](C)OC)[nH]c5cc4F)N3c3cc(F)c(N4CCC(c5ccc(F)cc5)CC4)c(F)c3)c(F)cc2[nH]1)[C@@H](C)OC`
Response given: 4

----------
Could you please report measured AUC(0-inf) for the items listed next?
# experimental-protocol: AUC (0 to infinity) in mouse at 3 mg/kg, po by LC-MS method
# Type: ADME, organism-based
# Design: dose 3 mg/kg, route oral, time infinity
# details: in vivo
Kindly answer with a numeric value in ng·h/mL, unit omitted.

Challenge: Name the reported AUC(0-inf) value associated with the compound `COC(=O)N[C@H](C(=O)N1CCC[C@H]1c1nc2cc([C@H]3CC[C@H](c4cc5nc([C@@H]6CCCN6C(=O)[C@@H](NC(=O)OC)C(C)C)[nH]c5cc4F)N3c3cc(F)c(N4CCC(c5ccccc5)CC4)c(F)c3)c(F)cc2[nH]1)C(C)C`
Response given: 14000

Challenge: Another compound to check: `COC(=O)N[C@H](C(=O)N1CCC[C@H]1C(=O)Nc1ccc([C@@H]2CC[C@@H](c3ccc(NC(=O)[C@@H]4CCCN4C(=O)[C@@H](NC(=O)OC)C(C)C)cc3)N2c2ccc(C(C)(C)C)cc2)cc1)C(C)C`
Response given: 11000
